# PROTOCOL NOTES: Inhibition of MGL in African green monkey COS7 cells cytosolic fraction assessed as reduction in 2-arachidonoyl-[3H]-glycerol hydrolysis by scintillation counting method
# Type: cell-based, Chlorocebus aethiops
# CONDITION: cos-7
pIC50: −log10 of the molar value.
MEASURE NAME: pIC50

For the 8 compounds below, give their pIC50 values.
1. CCCCCc1cc(O)cc(OCCCCCCCCCCC(=O)NN(C)C)c1
2. CCCCCCC(C)(C)c1cc(O)cc(OCCCCCCCCCCCN2C(=O)c3ccccc3C2=O)c1
3. CCCCCc1cc(O)cc(OCCCCCCCCCCCN2C(=O)c3ccccc3C2=O)c1
4. CCCCCc1cc(O)cc(OCCCCCCCCCCC(=O)NN2CCCCC2)c1
5. CCCCCCc1ccc(OCCCCCCCCCCCN2C(=O)c3ccccc3C2=O)cc1O
6. CCCCCCC(C)(C)c1cc(O)cc(OCCCCCCCCCN2C(=O)c3ccccc3C2=O)c1
7. CCCCCCc1ccc(O)cc1OCCCCCCCCCCCN1C(=O)c2ccccc2C1=O
8. CCCCCc1cc(O)cc(OCCCCCCCCCN2C(=O)c3ccccc3C2=O)c1

["< 5.00", "< 4.30", "< 4.30", "< 5.00", "< 4.30", "< 4.30", "< 4.30", "< 4.30"]
